Measured Tm of individual entries
B1: Haloalkane dehalogenase, D4Z2G1 (parent)
chain: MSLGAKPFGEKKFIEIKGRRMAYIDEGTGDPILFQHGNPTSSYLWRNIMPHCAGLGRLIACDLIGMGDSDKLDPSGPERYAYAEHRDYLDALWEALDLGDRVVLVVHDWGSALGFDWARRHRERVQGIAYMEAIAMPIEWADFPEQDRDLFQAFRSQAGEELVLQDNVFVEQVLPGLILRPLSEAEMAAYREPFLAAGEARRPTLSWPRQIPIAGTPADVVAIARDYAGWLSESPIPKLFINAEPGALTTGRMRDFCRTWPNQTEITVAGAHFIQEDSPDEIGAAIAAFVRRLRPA

Variants of: B1
test.parameters: Sphingobium indicum (strain DSM 16413 / CCM 7287 / MTCC 6362 / UT26 / NBRC 101211 / UT26S); pH 7.5; Thermal; fluorescence; Na-Hepes 50 mM; reversible: no; structure 1MJ5; whole UniProt chain shown
observation.type: Tm (°C)

In [3]: df
Out[3]:
    mutant_code  measured_value
 0         D68N            50.5
 1        E192L            51.5
 2        A129V              50
 3         Q35I            50.5
 4         D30A              51
 5         D87L            51.5
 6          A5L              50
 7        G229E            51.5
 8          L3S            50.5
 9         A83N              50
10         D30V              49
11        E123S              51
12   I48C G283C              49
13        E233Q            51.5
14        S183D              50
15         S42A            49.5
16        T264Q              50
17        A296H              50
18        A189Y            51.5
19         D97K            50.5
20          K6E              51
21        A296R            50.5
22        G229T            51.5
23         A81N              51
24         R86L              49
25        E233S            51.5
26        A185P            50.5
27         Q35V            48.5
28         E26H              50
29        C257A            48.5
30         S41Q              49
31         D97N              50
32        E244V            50.5
33        D100T              51
34         A53K              51
35        G229N            51.5
